Reference for the values: paper PMC9741652

Target: T1, ZER1 (residues 469–766) (human, UniProt Q7Z7L7 469-766)
T1 chain: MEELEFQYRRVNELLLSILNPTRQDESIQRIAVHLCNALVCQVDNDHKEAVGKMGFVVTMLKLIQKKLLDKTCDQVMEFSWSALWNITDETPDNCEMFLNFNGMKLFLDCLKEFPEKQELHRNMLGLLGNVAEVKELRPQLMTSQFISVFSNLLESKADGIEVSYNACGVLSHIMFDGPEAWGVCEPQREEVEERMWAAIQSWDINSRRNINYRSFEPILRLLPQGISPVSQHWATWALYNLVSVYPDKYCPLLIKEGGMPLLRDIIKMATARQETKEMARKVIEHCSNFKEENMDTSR
Experiment: ITC

Binder | Kd (µM)
SGRGKQGGKA (Printed N-terminus MEEL is read as start Met plus native residues from 469 (by analogy with SELF in ZYG11B); C-terminal His tag of pNIC-CH left out) [free H2A peptide (sequence: SGRGKQGGKA)] | 3.8
